- study-system: NRAS Q61R (Homo sapiens, UniProt P01111+P62937, Q61R)
- Sequence (P01111 whole entry Q61R): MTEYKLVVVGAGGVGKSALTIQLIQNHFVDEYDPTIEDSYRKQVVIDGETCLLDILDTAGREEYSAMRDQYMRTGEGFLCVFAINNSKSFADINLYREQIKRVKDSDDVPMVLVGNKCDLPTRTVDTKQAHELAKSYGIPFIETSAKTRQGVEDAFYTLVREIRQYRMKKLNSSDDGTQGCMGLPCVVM
- Sequence (P62937 whole entry): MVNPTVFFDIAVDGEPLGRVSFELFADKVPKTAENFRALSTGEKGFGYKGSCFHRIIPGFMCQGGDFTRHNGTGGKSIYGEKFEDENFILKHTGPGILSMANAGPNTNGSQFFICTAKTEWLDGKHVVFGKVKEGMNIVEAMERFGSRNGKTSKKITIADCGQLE
- experiment-description: Ras-Raf disruption / FRET / MOA assay (BRAF RBD)
- Assay type: biochemical
- test-conditions: NRAS Q61R; read-out: NRAS Q61R FRET data IC50
- From the text: Disruption of […] Ras-binding Domain (BRAF^RBD) Interaction with K-Ras by Compounds of the Invention (also Called a FRET Assay or an MOA Assay) Note—The following protocol describes a procedure for monitoring disruption of K-Ras G12C (GMP-PNP) binding to BRAF^RBD by a compound of the invention. This protocol may also be executed substituting other Ras proteins or nucleotides, such as K-Ras G12D and K-Ras G13D. […]
pIC50: −log10 of the molar value.
// reported pIC50 for each item listed
quantity: pIC50

[[record]]
compound = "CCn1c(-c2cccnc2[C@H](C)OC)c2c3cc(ccc31)-c1cc(O)cc(c1)C[C@H](NC(=O)[C@H](C(C)C)N(C)C(=O)[C@]1(F)CCN(C(=O)[C@H]3CN3)C1)C(=O)N1CCC[C@H](N1)C(=O)OCC(C)(C)C2 (atropisomer, axis not shown)"
quantity = "pIC50"
result = "6.00 to 7.00"

[[record]]
compound = "CCn1c(-c2cccnc2[C@H](C)OC)c2c3cc(ccc31)-c1csc(n1)C[C@H](NC(=O)[C@H](C(C)C)N(C)C(=O)N1CC(N(C)C(=O)[C@@H]3CN3)C1)C(=O)N1CCC[C@H](N1)C(=O)OCC(C)(C)C2 (atropisomer, axis not shown)"
quantity = "pIC50"
result = "6.00 to 7.00"


====

- study-system: KRAS G13C (Homo sapiens, UniProt P01116+P62937, G13C)
- Sequence (P01116 1-169 isoform P01116-2 G13C): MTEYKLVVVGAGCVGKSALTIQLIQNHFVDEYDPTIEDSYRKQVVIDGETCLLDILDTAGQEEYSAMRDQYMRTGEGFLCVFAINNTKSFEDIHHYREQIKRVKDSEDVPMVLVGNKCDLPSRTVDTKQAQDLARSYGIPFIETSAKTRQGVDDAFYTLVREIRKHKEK
- Sequence (P62937 whole entry): as the sequence (P62937 whole entry) above
- experiment-description: Disruption of BRAF RBD interaction with Ras (FRET / MOA assay, with Cyclophilin A)
- Format: biochemical
- test-conditions: read-out: KRAS G13C FRET data, IC50
quantity: IC50

[[record]]
compound = "CCn1c(-c2cccnc2[C@H](C)OC)c2c3cc(ccc31)-c1csc(n1)C[C@H](NC(=O)[C@H](C1CCCC1)N(C)C(=O)N1CCN(C)CC1)C(=O)N1CCC[C@H](N1)C(=O)OCC(C)(C)C2"
result = "100 to 1000 nM"

[[record]]
compound = "CCn1c(-c2cccnc2[C@H](C)OC)c2c3cc(ccc31)-c1cc(O)cc(c1)C[C@H](NC(=O)[C@H](C(C)C)N(C)C(=O)C1CNC1)C(=O)N1CCC[C@H](N1)C(=O)OCC(C)(C)C2"
result = "10 to 100 nM"

[[record]]
compound = "CCn1c(-c2cccnc2[C@H](C)OC)c2c3cc(ccc31)-c1csc(n1)C[C@H](NC(=O)[C@H](C(C)C)N(C)C(=O)N1CCCC13COC3)C(=O)N1CCC[C@H](N1)C(=O)OCC(C)(C)C2 (atropisomer, axis not shown)"
result = "100 to 1000 nM"

[[record]]
compound = "CCn1c(-c2cnccc2COC)c2c3cc(ccc31)-c1cc(O)cc(c1)C[C@H](NC(=O)[C@H](C(C)C)N(C)C(=O)OC1CNC1)C(=O)N1CCC[C@H](N1)C(=O)OCC(C)(C)C2"
result = "100 to 1000 nM"

[[record]]
compound = "CCn1c(-c2cccnc2[C@H](C)OC)c2c3cc(ccc31)-c1csc(n1)C[C@H](NC(=O)[C@H](C(C)C)N(C)C(=O)N1CC(OC)C1)C(=O)N1CC[C@H](C)[C@H](N1)C(=O)OCC(C)(C)C2"
result = "100 to 1000 nM"

[[record]]
compound = "CCn1c(-c2cnccc2COC)c2c3cc(ccc31)-c1cc(O)cc(c1)C[C@H](NC(=O)[C@H](C(C)C)N(C)C(=O)[C@H]1CCN(C(=O)C(C)C)C1)C(=O)N1CCC[C@H](N1)C(=O)OCC(C)(C)C2"
result = "1000 to 10000 nM"

[[record]]
compound = "CCn1c(-c2cc(C3CCN(C)CC3)cnc2[C@H](C)OC)c2c3cc(ccc31)-c1csc(n1)C[C@H](NC(=O)[C@H](C(C)C)N(C)C(=O)N1CCOCC1)C(=O)N1CCC[C@H](N1)C(=O)OCC(C)(C)C2 (atropisomer, axis not shown)"
result = "100 to 1000 nM"

[[record]]
compound = "CCn1c(-c2cnccc2[C@H](C)OC)c2c3cc(ccc31)-c1cc(O)cc(c1)C[C@H](NC(=O)[C@H](C(C)C)N(C)C(C)=O)C(=O)N1CCC[C@H](N1)C(=O)OCC(C)(C)C2"
result = "10 to 100 nM"

[[record]]
compound = "CCn1c(-c2cccnc2[C@H](C)OC)c2c3cc(ccc31)-c1csc(n1)C[C@H](NC(=O)[C@H](C1CCCC1)N(C)C(C)=O)C(=O)N1CCC[C@H](N1)C(=O)OCC(C)(C)C2"
result = "1000 to 10000 nM"

